# assay method text: Oral bioavailability in ICR mouse at 20 mg/kg measured for 24 hrs by LC-MS/MS analysis
# Assay type: ADME, organism-based
# experimental context: in vivo
F values by entry
property measured: F

• CC(C)(C)[C@H](NS(=O)(=O)C(F)(F)F)C(=O)N1[C@@H]2CC[C@@H](C2)[C@H]1C(=O)N[C@@H](C[C@@H]1CCNC1=O)C(=O)c1nc2ccccc2s1 = 67.98%
• CC(C)(C)[C@H](NC(=O)C(F)(F)F)C(=O)N1C[C@H]2[C@@H]([C@H]1C(=O)N[C@H](C#N)C[C@@H]1CCNC1=O)C2(C)C [NIRMATRELVIR] = 22.85%
• O=C1NCC[C@H]1C[C@H](NC(=O)[C@@H]1[C@H]2CC[C@H](C2)N1C(=O)[C@@H](NS(=O)(=O)C(F)(F)F)C12CC3CC(CC(C3)C1)C2)C(=O)c1nc2ccccc2s1 = 48.1%
• CC(C)(C)[C@H](NC(=O)C(F)(F)F)C(=O)N1[C@@H]2CC[C@@H](C2)[C@H]1C(=O)N[C@@H](C[C@@H]1CCNC1=O)C(=O)c1nc2ccccc2s1 = 47.25%

---

t1/2 values by entry
# assay method text: Half life in ICR mouse at 10 mg/kg, iv measured for 24 hrs by LC-MS/MS analysis
# Format: ADME, organism-based
# experimental context: in vivo
property measured: t1/2

* O=C1NCC[C@H]1C[C@H](NC(=O)[C@@H]1[C@H]2CC[C@H](C2)N1C(=O)[C@@H](NS(=O)(=O)C(F)(F)F)C12CC3CC(CC(C3)C1)C2)C(=O)c1nc2ccccc2s1 | 82.8 min
* CC(C)(C)[C@H](NC(=O)C(F)(F)F)C(=O)N1[C@@H]2CC[C@@H](C2)[C@H]1C(=O)N[C@@H](C[C@@H]1CCNC1=O)C(=O)c1nc2ccccc2s1 | 28.2 min
* CC(C)(C)[C@H](NC(=O)C(F)(F)F)C(=O)N1C[C@H]2[C@@H]([C@H]1C(=O)N[C@H](C#N)C[C@@H]1CCNC1=O)C2(C)C [NIRMATRELVIR] | 25.2 min
* CC(C)(C)[C@H](NS(=O)(=O)C(F)(F)F)C(=O)N1[C@@H]2CC[C@@H](C2)[C@H]1C(=O)N[C@@H](C[C@@H]1CCNC1=O)C(=O)c1nc2ccccc2s1 | 44.4 min

---

# assay method text: AUC (0 to t) in ICR mouse at 10 mg/kg, iv measured for 24 hrs by LC-MS/MS analysis
# Format: ADME, organism-based
# experimental context: in vivo
property measured: AUCt (ng·h/mL)

• CC(C)(C)[C@H](NS(=O)(=O)C(F)(F)F)C(=O)N1[C@@H]2CC[C@@H](C2)[C@H]1C(=O)N[C@@H](C[C@@H]1CCNC1=O)C(=O)c1nc2ccccc2s1 = 3783
• O=C1NCC[C@H]1C[C@H](NC(=O)[C@@H]1[C@H]2CC[C@H](C2)N1C(=O)[C@@H](NS(=O)(=O)C(F)(F)F)C12CC3CC(CC(C3)C1)C2)C(=O)c1nc2ccccc2s1 = 33780
• CC(C)(C)[C@H](NC(=O)C(F)(F)F)C(=O)N1[C@@H]2CC[C@@H](C2)[C@H]1C(=O)N[C@@H](C[C@@H]1CCNC1=O)C(=O)c1nc2ccccc2s1 = 2281
• CC(C)(C)[C@H](NC(=O)C(F)(F)F)C(=O)N1C[C@H]2[C@@H]([C@H]1C(=O)N[C@H](C#N)C[C@@H]1CCNC1=O)C2(C)C = 2240

---

# assayed target: Replicase polyprotein 1ab (Severe acute respiratory syndrome coronavirus 2, UniProt P0DTD1)
# assay method text: Inhibition of recombinant SARS-CoV-2 3CLpro using Dacyl-KTSAVLQSGFRKME-Edans as substrate preincubated for 10 mins followed by substrate addition measured for 5 mins by FRET assay
pIC50: −log10 of the molar value.
property measured: pIC50

• O=C1NCC[C@H]1C[C@H](NC(=O)[C@@H]1[C@H]2CC[C@H](C2)N1C(=O)[C@@H](NS(=O)(=O)C(F)(F)F)C12CC3CC(CC(C3)C1)C2)C(=O)c1nc2ccccc2s1 = 5.78
• [2H]C([2H])([2H])C(=O)N[C@H](C(=O)N1[C@@H]2CC[C@@H](C2)[C@H]1C(=O)N[C@@H](C[C@@H]1CCNC1=O)C(=O)c1nc2ccccc2s1)C(C)(C)C = 6.28
• O=C1NCC[C@H]1C[C@H](NC(=O)[C@@H]1[C@H]2CC[C@H](C2)N1C(=O)[C@H](CC1CCCCC1)NS(=O)(=O)C(F)(F)F)C(=O)c1nc2ccccc2s1 = 5.29
• CC(C)(C)OC(=O)N[C@H](C(=O)N1[C@@H]2CC[C@@H](C2)[C@H]1C(=O)N[C@@H](C[C@@H]1CCNC1=O)C(=O)c1nc2ccccc2s1)C(C)(C)C = 5.30
• CC(C)(C)[C@H](NS(=O)(=O)C(F)(F)F)C(=O)N1[C@@H]2CC[C@@H](C2)[C@H]1C(=O)N[C@@H](C[C@@H]1CCNC1=O)C(=O)c1nc2ccccc2s1 = 6.06

---

Cmax values by entry
# assay method text: Cmax in ICR mouse at 20 mg/kg, po measured for 24 hrs by LC-MS/MS analysis
# Assay type: ADME, organism-based
# experimental context: in vivo
property measured: Cmax (ng/mL)

* O=C1NCC[C@H]1C[C@H](NC(=O)[C@@H]1[C@H]2CC[C@H](C2)N1C(=O)[C@@H](NS(=O)(=O)C(F)(F)F)C12CC3CC(CC(C3)C1)C2)C(=O)c1nc2ccccc2s1 | 9327
* CC(C)(C)[C@H](NC(=O)C(F)(F)F)C(=O)N1[C@@H]2CC[C@@H](C2)[C@H]1C(=O)N[C@@H](C[C@@H]1CCNC1=O)C(=O)c1nc2ccccc2s1 | 1597
* CC(C)(C)[C@H](NC(=O)C(F)(F)F)C(=O)N1C[C@H]2[C@@H]([C@H]1C(=O)N[C@H](C#N)C[C@@H]1CCNC1=O)C2(C)C | 1819
* CC(C)(C)[C@H](NS(=O)(=O)C(F)(F)F)C(=O)N1[C@@H]2CC[C@@H](C2)[C@H]1C(=O)N[C@@H](C[C@@H]1CCNC1=O)C(=O)c1nc2ccccc2s1 | 3342

---

# assay method text: AUC (0 to t) in ICR mouse at 20 mg/kg, po measured for 24 hrs by LC-MS/MS analysis
# Format: ADME, organism-based
# experimental context: in vivo
property measured: AUCt (ng·h/mL)

* CC(C)(C)[C@H](NS(=O)(=O)C(F)(F)F)C(=O)N1[C@@H]2CC[C@@H](C2)[C@H]1C(=O)N[C@@H](C[C@@H]1CCNC1=O)C(=O)c1nc2ccccc2s1 | 5143
* CC(C)(C)[C@H](NC(=O)C(F)(F)F)C(=O)N1C[C@H]2[C@@H]([C@H]1C(=O)N[C@H](C#N)C[C@@H]1CCNC1=O)C2(C)C | 1023
* O=C1NCC[C@H]1C[C@H](NC(=O)[C@@H]1[C@H]2CC[C@H](C2)N1C(=O)[C@@H](NS(=O)(=O)C(F)(F)F)C12CC3CC(CC(C3)C1)C2)C(=O)c1nc2ccccc2s1 | 32473
* CC(C)(C)[C@H](NC(=O)C(F)(F)F)C(=O)N1[C@@H]2CC[C@@H](C2)[C@H]1C(=O)N[C@@H](C[C@@H]1CCNC1=O)C(=O)c1nc2ccccc2s1 | 2155

---

t1/2 values by entry
# assay method text: Half life in ICR mouse at 20 mg/kg, po measured for 24 hrs by LC-MS/MS analysis
# Format: ADME, organism-based
# experimental context: in vivo
property measured: t1/2

• CC(C)(C)[C@H](NS(=O)(=O)C(F)(F)F)C(=O)N1[C@@H]2CC[C@@H](C2)[C@H]1C(=O)N[C@@H](C[C@@H]1CCNC1=O)C(=O)c1nc2ccccc2s1 = 45.6 min
• CC(C)(C)[C@H](NC(=O)C(F)(F)F)C(=O)N1[C@@H]2CC[C@@H](C2)[C@H]1C(=O)N[C@@H](C[C@@H]1CCNC1=O)C(=O)c1nc2ccccc2s1 = 54.6 min
• CC(C)(C)[C@H](NC(=O)C(F)(F)F)C(=O)N1C[C@H]2[C@@H]([C@H]1C(=O)N[C@H](C#N)C[C@@H]1CCNC1=O)C2(C)C [NIRMATRELVIR] = 30.6 min
• O=C1NCC[C@H]1C[C@H](NC(=O)[C@@H]1[C@H]2CC[C@H](C2)N1C(=O)[C@@H](NS(=O)(=O)C(F)(F)F)C12CC3CC(CC(C3)C1)C2)C(=O)c1nc2ccccc2s1 = 126 min

---

AUC values by entry
# assay method text: AUC (0 to infinity) in ICR mouse at 20 mg/kg, po measured for 24 hrs by LC-MS/MS analysis
# Assay type: ADME, organism-based
# experimental context: in vivo
property measured: AUC

- CC(C)(C)[C@H](NS(=O)(=O)C(F)(F)F)C(=O)N1[C@@H]2CC[C@@H](C2)[C@H]1C(=O)N[C@@H](C[C@@H]1CCNC1=O)C(=O)c1nc2ccccc2s1: 5153 ng·h/mL
- CC(C)(C)[C@H](NC(=O)C(F)(F)F)C(=O)N1C[C@H]2[C@@H]([C@H]1C(=O)N[C@H](C#N)C[C@@H]1CCNC1=O)C2(C)C [NIRMATRELVIR]: 1029 ng·h/mL
- O=C1NCC[C@H]1C[C@H](NC(=O)[C@@H]1[C@H]2CC[C@H](C2)N1C(=O)[C@@H](NS(=O)(=O)C(F)(F)F)C12CC3CC(CC(C3)C1)C2)C(=O)c1nc2ccccc2s1: 33207 ng·h/mL
- CC(C)(C)[C@H](NC(=O)C(F)(F)F)C(=O)N1[C@@H]2CC[C@@H](C2)[C@H]1C(=O)N[C@@H](C[C@@H]1CCNC1=O)C(=O)c1nc2ccccc2s1: 2161 ng·h/mL
